- assayProcedure: chemical genetic growth profiling, strain panel (AID 1159580);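 also: tested at 20 µM; growth read once vehicle control cultures reached saturation at 30 °C; 1 = growth at the plate median or of vehicle wells; lower values mean less growth of the strain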
- assaySetup: S. cerevisiae deletion strains, growth OD, locus YLR371W, strain rom2, hits give low values
Hit rate of the full screen: of about 5,500 compounds, about 2,000 (36%) were called active. Inconclusive results (about 18%) are left out. This is one part of the list.
readoutType: normalized growth
Write the number on its own, no unit after it.

Examples with their reported normalized growth follow.
{"molecule": "Cc1cc(C2CCCCC2)n(O)c(=O)c1", "readoutNumber": 0.0664}
{"molecule": "COC(=O)C[C@H]1C(C)(C)C2(Cl)O[C@@]34CC2C(=O)[C@]1(C)C3CC[C@]1(C)C4=CC(=O)O[C@H]1c1ccoc1 (some centres undefined)", "readoutNumber": 0.996}
{"molecule": "O=C(O[C@@H]1Cc2c(O)cc(O)cc2O[C@@H]1c1cc(O)c(=O)c2c(O)c(O)cc([C@H]3Oc4cc(O)cc(O)c4C[C@H]3O)c2c1)c1cc(O)c(O)c(O)c1", "readoutNumber": 0.661}

*Q* Given COc1ccc(Cl)cc1C(=O)NCCc1ccc(S(=O)(=O)NC(=O)NC2CCCCC2)cc1 , state its recorded normalized growth.
*A* 1.01
